Listed binders paired with reported Kd
Biological target: T1, His-tagged ECD of mouse 4-1BB (mouse, UniProt P20334 24-187)
T1 construct: also called murine 4-1BB; mu4-1BB; not shown: His tag
T1 sequence: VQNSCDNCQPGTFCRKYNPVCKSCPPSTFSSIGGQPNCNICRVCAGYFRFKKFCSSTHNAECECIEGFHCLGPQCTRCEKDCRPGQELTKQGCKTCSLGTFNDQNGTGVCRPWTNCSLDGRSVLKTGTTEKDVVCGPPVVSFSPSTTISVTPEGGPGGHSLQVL
Experiment: SPR (Biacore), captured antibody, His-tagged ECD analyte
Please give a number only; it is taken to be in nM.

- Binder: "hu107-1-hIgG4 (antibody, V domains shown, Human IgG4 constant region with the S228P mutation; also called hu107.1x.1x) VH: EVQLVQSGAEVKKPGSSVKVSCKASDYTFNDYWVSWVRQAPGQGLEWIGEIYPNSGATNFNGKFRGRATLTVDNSASTAYMELSSLRSEDTAVYYCTREYTRDWFAYWGQGTLVTVSS VL: DVVLTQSPLSLPVTLGQPASISCRSSQSLLDSDGNTYLYWFQQRPGQSPRRLIYLVSNLGSGVPDRFSGSGSGTDFTLKISRVEAEDVGVYYCMQPTHAPYTFGQGTKLEIK"
  Kd (nM): 4
- Binder: "hu106-4-hIgG4 (antibody, V domains shown, Human IgG4 constant region with the S228P mutation; also called hu106.1x.3x) VH: EVQLVQSGAEVKKPGSSVKVSCKASGYTFTSYYIYWVRQAPGQGLEWIGNIWPGNGGTFYGEKFMGRATFTADTSTSTAYMELSSLRSEDTAVYYCARRPDYSGDDYFDYWGQGTLVTVSS VL: SVELTQPPSVSVSPGQTARITCKLNSGNIGSYYVHWYQQKPGQAPVTMIYRDDKRPDGIPERFSGSSDSSSNSAFLTISGVQAEDEADYYCHSYDSTITPVFGGGTKLTVL"
  Kd (nM): 9.3
- Binder: "hu106-7-hIgG4 (antibody, V domains shown, Human IgG4 constant region with the S228P mutation; also called hu106.1y.3x) VH: EVQLVESGGGLVQPGGSLRLSCAASGYTFTSYYIYWVRQAPGKGLEWIGNIWPGNGGTFYGEKFMGRATFSADTSKNTAYLQMNSLRAEDTAVYYCARRPDYSGDDYFDYWGQGTLVTVSS VL: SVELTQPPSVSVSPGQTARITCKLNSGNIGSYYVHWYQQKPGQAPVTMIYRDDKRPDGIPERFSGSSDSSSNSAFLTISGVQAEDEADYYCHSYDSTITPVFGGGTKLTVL"
  Kd (nM): 17

**Q:** Please look up its Kd: hu107-3-hIgG4 (antibody, V domains shown, Human IgG4 constant region with the S228P mutation; also called hu107.1x.1y) VH: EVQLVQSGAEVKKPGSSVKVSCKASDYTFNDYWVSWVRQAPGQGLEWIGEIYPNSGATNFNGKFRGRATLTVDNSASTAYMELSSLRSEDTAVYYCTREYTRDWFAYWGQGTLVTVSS VL: DVQLTQSPSSLSASVGDRVTITCRSSQSLLDSDGNTYLYWFQQKPGKAPKRLIYLVSNLGSGVPSRFSGSGSGTDFTLTISSLQPEDFATYYCMQPTHAPYTFGQGTKVEIK
**A:** 5.1
